Target: Methionine--tRNA ligase, mitochondrial (Homo sapiens)
Assay: human mtMetRS tRNA charging inhibition – biochemical, radioactivity, round 1, selectivity assay for T. brucei MetRS inhibitor project, late-stage follow-up (AID 743061);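 further: 0% = DMSO with full reaction and 100% = DMSO wells lacking tRNA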
Details: recombinant human mtMetRS, [3H]Met tRNA charging, at 10 µM, stronger effect = higher value
This section presents compounds with their documented inhibition values.
Could you give me the number in %? Just the number is fine.

These solved cases illustrate the format of a correct answer.
- CCN(CC)C(=O)C(=O)c1cn(CC(=O)N2CCCc3ccccc32)c2ccccc12: -1.92
- CC(C)c1nc2ccc(C(=O)N(C)CCc3nc4ccc(F)cc4[nH]3)cc2o1: 0.38

The recorded inhibition with Methionine--tRNA ligase, mitochondrial (Homo sapiens) for Cc1cccc2[nH]c(CCN(C)C(=O)c3cccc(C4CCNC4)c3)nc12 (stereo not given) was -5.77

Here O=C(NCc1nc2ccccc2[nH]1)C1=C[C@@H](c2ccccc2)C[C@@H](OCc2ccc(CO)cc2)O1 was tested on Methionine--tRNA ligase, mitochondrial (Homo sapiens), and its inhibition came to 15.8

Form: item O=C1CC(NCCc2ccccc2)C(=O)N1c1ccc(Br)cc1 (stereo not given) ; test system Methionine--tRNA ligase, mitochondrial (Homo sapiens); inhibition: 6.62
